B1: SPDEF (parent)
chain: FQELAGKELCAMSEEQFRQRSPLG

Variants of: B1
TEST SUMMARY: protein stability index of a GFP-peptide fusion (GPS, HEK-293T) (PSI 1-6); higher = more stable;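 note: lentivirally expressed fusions sorted by FACS into six bins by GFP to DsRed ratio, PSI derived from sequencing read proportions per bin multiplied by bin number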
RUN CONDITIONS: c terminus: a fixed tail appended
REPORTED PROPERTY: protein stability index
One number for each entry.

Respectfully, I request protein stability index for each entry included below.
1. L4E
2. G6E
3. L23H

Result:
4.48
4.18
3.18

Where these numbers come from: the supplement of paper PMC10567573
